Biological target: T1, rat µ opioid receptor (rat, UniProt P33535 1-398)
T1 construct: whole, on cells; Used as crude membrane preparations of the transfected cells; also called rMOR; MOR
T1 sequence (P33535 whole entry): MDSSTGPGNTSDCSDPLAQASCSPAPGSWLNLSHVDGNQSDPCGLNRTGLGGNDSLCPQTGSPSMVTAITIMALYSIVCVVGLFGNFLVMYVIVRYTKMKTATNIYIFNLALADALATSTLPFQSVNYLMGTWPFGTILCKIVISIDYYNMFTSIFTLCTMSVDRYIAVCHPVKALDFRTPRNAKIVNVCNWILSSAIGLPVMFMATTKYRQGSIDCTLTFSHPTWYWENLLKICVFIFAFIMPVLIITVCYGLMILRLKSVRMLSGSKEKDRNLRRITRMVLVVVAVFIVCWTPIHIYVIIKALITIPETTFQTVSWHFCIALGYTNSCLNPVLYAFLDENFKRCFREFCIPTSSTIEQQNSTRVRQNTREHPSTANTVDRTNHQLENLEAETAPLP
Assay: radioligand competition vs [3H]DAMGO, membranes of rMOR cells
pKi: −log10 of the molar value. Bridge positions count the residues as written; N and C are the ends. Square brackets hold non-standard residues; d marks the D form. Primed or numbered codes have the meaning given here. Ends that are not written are not given here. * marks the point of attachment. NHBn(CF3)2 = C-terminal amide NH-Bn(CF3)2, a benzyl group carrying two CF3; Glc = O-glucosyl on Ser side chain (Ser(OGlu)/Ser(OGlc)); NH(3,5-(CF3)2-benzyl) = FC(F)(F)c1cc(CN*)cc(C(F)(F)F)c1; NMeBn(3,5-(CF3)2) = CN(Cc1cc(C(F)(F)F)cc(C(F)(F)F)c1)*; OBzl(3,5-(CF3)2) = FC(F)(F)c1cc(CO*)cc(C(F)(F)F)c1; Glc″ = glucosyl on the serine side-chain oxygen; NH‑Bn(CF3)2 = C-terminal Bn(CF3)2 amide; Dmt = Cc1cc(O)cc(C)c1C[C@H](N)C(=O)O; Nle = CCCC[C@H](N)C(=O)O; NHBn = c1ccc(CN*)cc1; OBn = c1ccc(CO*)cc1
# reported pKi; entries follow

- binder: "Y[dC]GFMPLW-{OBzl(3,5-(CF3)2)} [TyrDCysGlyPheMetProLeuTrpOBn(CF3)2 (TY031)]"
  pKi: 6.76
- binder: "MPLW-{NHBn(CF3)2} [MetProLeuTrpNHBn(CF3)2 (TY051)]"
  pKi: 6.06
- binder: "Y[dA]GFFPLW-OBn [TyrDAlaGlyPhePheProLeuTrpOBn (TY014)]"
  pKi: 7.44
- binder: "[Dmt][dA]GFMPLW-NHBn [DmtDAlaGlyPheMetProLeuTrpNHBn (TY034)]"
  pKi: 9.85
- binder: "[Dmt][dA]GF[Nle]PS(Glc)W-{NH‑Bn(CF3)2} [DmtDAlaGlyPheNleProSer(OGlu)TrpNHBn(CF3)2 (TY056)]"
  pKi: 8.72
- binder: "Y[dA]GF[Nle]PS(Glc)W-{NH‑Bn(CF3)2} [TyrDAlaGlyPheNleProSer(OGlu)TrpNHBn(CF3)2 (TY041)]"
  pKi: 8.10
- binder: "Y[dA]GFGPLW-{OBzl(3,5-(CF3)2)} [TyrDAlaGlyPheGlyProLeuTrpOBn(CF3)2 (TY006)]"
  pKi: 7.57
- binder: "YXGFXPLW (D-Pen (D-penicillamine) at 2 (X); Pen (L-penicillamine) at 5 (X); disulfide 2-5 (cyclic); C-terminal NH-Bn(CF3)2 amide) [Tyr[DPenGlyPhePen]ProLeuTrpNHBn(CF3)2 (TY046)]"
  pKi: 5.63
- binder: "Y[dA]GFLPLW-{OBzl(3,5-(CF3)2)} [TyrDAlaGlyPheLeuProLeuTrpOBn(CF3)2 (TY004)]"
  pKi: 7.63
- binder: "Y[dA]GF[dF]PLW-{OBzl(3,5-(CF3)2)} [TyrDAlaGlyPheDPheProLeuTrpOBn(CF3)2 (TY007)]"
  pKi: 6.39
- binder: "Y[dC]GF[Nle]PCW-{NH(3,5-(CF3)2-benzyl)} (disulfide 2-7, also called [D-Cys2, Cys7]TY027) [Tyr[DCysGlyPheNleProCys]TrpNHBn(CF3)2 (TY035)]"
  pKi: 7.10
- binder: "Y[dA]GFFPLW-{NMeBn(3,5-(CF3)2)} [TyrDAlaGlyPhePheProLeuTrpNMeBn(CF3)2 (TY017)]"
  pKi: 7.13
- binder: "Y[dA]GFSPLW-{NH(3,5-(CF3)2-benzyl)} (not fully specified (residue 5); printed as TyrDAlaGlyPheSer(OGlu)ProLeuTrpNHBn(CF3)2) [TyrDAlaGlyPheSer(OGlu)ProLeuTrpNHBn(CF3)2 (TY042)]"
  pKi: 6.59
- binder: "Y[dA]GFFPLW-{OBzl(3,5-(CF3)2)} [TyrDAlaGlyPhePheProLeuTrpOBn(CF3)2 (TY003)]"
  pKi: 7.55
- binder: "MPLW-{OBzl(3,5-(CF3)2)} [MetProLeuTrpOBn(CF3)2 (TY036)]"
  pKi: 5.34
- binder: "YXGFXPLW (D-Pen at 2 and 5 (X); disulfide 2-5 (cyclic); C-terminal NH-Bn(CF3)2 amide) [Tyr[DPenGlyPheDPen]ProLeuTrpNHBn(CF3)2 (TY049)]"
  pKi: 5.69
- binder: "Y[dA]GF[Nle]S(Glc″)LW-{NH‑Bn(CF3)2} [TyrDAlaGlyPheNleSer(OGlu)LeuTrpNHBn(CF3)2 (TY044)]"
  pKi: 5.47
- binder: "Y[dA]GFFPLW-{NHBn(CF3)2} [TyrDAlaGlyPhePheProLeuTrpNHBn(CF3)2 (TY015)]"
  pKi: 7.27
